test: qHTS Screen of the MIPE 4.0 Collection Against Ewings Sarcoma (TC32) (AID 1259256); details: TC32 Ewing sarcoma viability, CellTiter-Glo, 48 h; series mostly up to 45.8 µM; note: nearly all actives have a fitted effect of over 45% in size
Inconclusive results are not listed. Activity calls are given as the source filed them. Calls come from the whole dose curve; as a rule, active = well fitted inhibition curve with a large enough effect; inconclusive = small, poorly fitted or top-dose-only effect; inactive = no such curve, though single readings can be large or run the other way.
API: response.call in true (1) for active, false (0) for inactive

1. O=c1[nH]c(=O)n([C@H]2C[C@@H](O)[C@@H](CO)O2)cc1F ... true (1)
2. Cc1onc(-c2ccccc2)c1C(=O)N[C@@H]1C(=O)N2[C@@H](C(=O)O)C(C)(C)S[C@@H]12 ... false (0)
3. N[C@H]1CN(c2c(F)cc3c(=O)c(C(=O)O)cn(C4C[C@@H]4F)c3c2Cl)CC12CC2 (some centres not stated) ... true (1)
4. CC(=O)OCC(=O)[C@@]12N=C(C)O[C@H]1C[C@H]1[C@@H]3CCC4=CC(=O)C=C[C@]4(C)[C@@H]3[C@@H](O)C[C@@]12C ... false (0)

stdin: How was "CCc1cc(C(C)=NOCc2ccc(C3CCCCC3)c(C(F)(F)F)c2)ccc1CN1CC(C(=O)O)C1" classified in this test?
stdout: false (0)

stdin: How was "CNC(=O)c1cccc(-c2ccc3c(N4CCOC[C@H]4C)nc(N4CCOC[C@H]4C)nc3n2)c1" classified in this test?
stdout: true (1)
